Tested on: pigweed
Assay: Test B pre/postemergence pigweed
Type: in vivo, Amaranthus retroflexus
Conditions: Rate 250 g/ha, Postemergence; scale of 0 to 10 where 0 is no effect and 10 is complete control
Reported Plant response rating, Redroot pigweed values are given for each entry in this list.
# answer = number (no unit)

# input Endpoint output: Plant response rating, Redroot pigweed of C=CCn1c(=O)on(C(=O)N(CC)C2CCCCC2)c1=O . Value?
# output 0

# input Data request, read-out Plant response rating, Redroot pigweed, for CC(C)N(C(=O)n1oc(=O)n(C[Si](C)(C)C)c1=O)c1ccccc1
# output 0

# input Need Plant response rating, Redroot pigweed, item CC(C)N(C(=O)n1oc(=O)n(CCCF)c1=O)c1ccccc1
# output 3

Continuing:
# input Entry under review: CCN(CC)C(=O)Cn1c(=O)on(C(=O)N(c2ccccc2)C(C)C)c1=O . Reported Plant response rating, Redroot pigweed?
# output 0

###

System: wheat
Test: Test B pre/postemergence wheat
Type: in vivo, Triticum aestivum
Settings: Rate 500 g/ha, Postemergence; scale 0 to 10
# Wheat plant response rating annotations
// print number alone

The examples below pair each entry with its known result.
# input Name the recorded Wheat plant response rating for CCCn1c(=O)on(C(=O)N(c2ccc(F)cc2F)C(C)C)c1=O .
# output 8

# input Wheat plant response rating lookup needed for COc1nc(OC)nc(N(C(=O)n2oc(=O)n(-c3ccccc3C)c2=O)C(C)C)n1 , thanks.
# output 0

# input Name the recorded Wheat plant response rating for CC(C)N(C(=O)n1oc(=O)n(C(C)C)c1=O)c1ccc(F)cc1 .
# output 6

Lab note: next compound to report on.
# input Find the recorded Wheat plant response rating belonging to C=CCn1c(=O)on(C(=O)N(c2ccc(F)cc2F)C(C)C)c1=O and report it.
# output 8

###

Test system: surinam grass
Assay: Test B pre/postemergence surinam grass
Type: in vivo, Brachiaria decumbens
Details: Rate 500 g/ha, Postemergence; scale 0 to 10, 0 no effect, 10 complete control
Assay Endpoint: Plant response rating, B. signalgrass
Please reply with the number alone, leaving off any unit.

Study these solved cases before continuing.
# input Dear colleague, I am looking for the recorded Plant response rating, B. signalgrass of the following compound: Cc1c(-n2c(=O)on(C(=O)N(c3ccc(Cl)cc3)C(C)C)c2=O)ccc2ccccc12 [Compound 336]
# output 0

# input Requested field: Plant response rating, B. signalgrass. Item: CC(C)C(C)n1c(=O)on(C(=O)N(c2ccccc2)C(C)C)c1=O (stereo not drawn) [Compound 355]
# output 2

# input // Plant response rating, B. signalgrass lookup, key: Cc1nnsc1Cn1c(=O)on(C(=O)N(c2ccccc2)C(C)C)c1=O [Compound 378]
# output 2

# input What measured Plant response rating, B. signalgrass goes with CC(C)N(C(=O)n1oc(=O)n(CCl)c1=O)c1ccc(F)cc1 [Compound 376] ?
# output 0

# input Which Plant response rating, B. signalgrass is listed for CCC(CC)n1c(=O)on(C(=O)N(c2ccccc2)C(C)C)c1=O [Compound 354] ?
# output 2

Further cases:
# input Consider the compound shown here: CC1CC1n1c(=O)on(C(=O)N(c2ccc(Cl)cc2)C(C)C)c1=O (stereo not drawn) [Compound 369] What is its recorded Plant response rating, B. signalgrass?
# output 3

###

Tested on: sugar beet
Test: Test B pre/postemergence sugar beet
Type: in vivo, Beta vulgaris
Conditions: Rate 500 g/ha, Postemergence; scale 0 to 10
Description: […] At the same time, these crop and weed species were also treated with postemergence applications of test chemicals formulated in the same manner. […] Treated plants and controls were maintained in a greenhouse for twelve to sixteen days, after which all species were compared to controls and visually evaluated. […]
Threshold check on Sugarbeets plant response rating: at or above 3 gives Met, strictly below gives Not met.

# input Hi team, for C#CCn1c(=O)on(C(=O)N(c2ccc(F)cc2)C(C)C)c1=O , is the recorded Sugarbeets plant response rating at or above 3?
# output Met

# input Test whether the compound CC(C)N(C(=O)n1oc(=O)n([C@H](C)c2ccccc2)c1=O)c1ccc(F)cc1 records Sugarbeets plant response rating of 3 or higher.
# output Met

# input I'd appreciate it if you could say whether C=C(C)CCn1c(=O)on(C(=O)N(c2ccc(F)cc2)C(C)C)c1=O has Sugarbeets plant response rating at least equal to 3.
# output Not met

# input Can CSc1ccc(N(C(=O)n2oc(=O)n(-c3ccccc3C)c2=O)C(C)C)cc1 be said to have Sugarbeets plant response rating at or above 3?
# output Not met
